Cited source: patent US8802597B2

Could you please report measured pest or weed control at 125 g/ha for the items listed next?
System: bermudagrass (Cynodon dactylon)
methodNotes: Test C pre/postemergence
Type: in vivo
details: Cynodon dactylon, post-emergence; Postemergence, 125 g ai/ha; scale 0 to 100 (0 no effect, 100 complete control); read-out: Bermudagrass plant response rating
Give bare numbers, in %.

• CCOC(=O)c1nc(-c2ccc(Cl)cc2)nc(N)c1Cl [Compound 64] = 65
• Nc1nc(-c2ccc(Cl)cc2)nc(C(=O)O)c1Cl [Compound 65] = 70
• Nc1nc(C2CC2)nc(C(=O)OCc2ccccc2)c1Cl [Compound 78] = 60

Field: next compound
-- ask Which pest or weed control at 125 g/ha is listed for CCOC(=O)c1nc(C2CC2)nc(N)c1F [Compound 30] ?
-- reply 5

---

Tested on: giant foxtail (Setaria faberii)
methodNotes: Test C pre/postemergence
Assay type: in vivo
details: Setaria faberi, post-emergence, Postemergence, 125 g ai/ha; scale 0 to 100 (0 no effect, 100 complete control); read-out: Foxtail, Giant plant response rating
propertyLabel: pest or weed control at 125 g/ha (%)
One number for each entry, in %.

* CCOC(=O)c1nc(C2CC2)nc(N)c1Br [Compound 1] | 65

For each listed entry, give its pest or weed control at 125 g/ha.
1. CCOC(=O)c1nc(C2CC2)nc(N)c1Cl [Compound 4]
2. Nc1nc(C2CC2)nc(C(=O)OCc2ccccc2)c1Br [Compound 22]
3. CCOC(=O)c1nc(C2CC2)nc(NN)c1Br [Compound 42]

-- reply
1: 75; 2: 45; 3: 0

---

Task for the reader: assign each of the following compounds its reported pest or weed control at 500 g/ha.
System: morningglory (Ipomoea coccinea)
methodNotes: Test B pre/postemergence
Assay type: in vivo
details: Ipomoea, pre-emergence, Preemergence, 500 g ai/ha; scale 0 to 100 (0 no effect, 100 complete control); read-out: Morningglory plant response rating
Give bare numbers, in %.

* CCOC(=O)c1nc(C2CC2)nc(NN)c1Br [Compound 42] | 80
* Nc1nc(C2CC2)nc(C=O)c1Br [Compound 26] | 100

For each of the items listed, what is its pest or weed control at 500 g/ha?
1. COC(=O)c1nc(C2CC2)nc(NO)c1Br [Compound 35]
2. CCOC(=O)c1nc(C(C)(C)C)nc(N)c1Br [Compound 36]
3. CNc1nc(C2CC2)nc(C(=O)OC)c1Br [Compound 5]

-- reply
100
0
80

---

Test system: wheat (Triticum aestivum)
methodNotes: Test D pre/postemergence
Format: in vivo
details: Postemergence, 125 g ai/ha, scale 0 to 100 (100 = complete control)
Description: […] At the same time, plants selected from these crop and weed species were treated with postemergence applications of some of the test chemicals formulated in the same manner. […] Treated plants and controls were maintained in a controlled growth environment for 15 to 25 days after which time all species were compared to controls and visually evaluated. […]
Classify as follows. Reported Plant response rating, Wheat greater than or equal to 60: Criterion met. Reported Plant response rating, Wheat below: Criterion not met.

Please review the following examples before continuing.
* COC(=O)c1nc(C2CC2)nc(NO)c1Br | Criterion met
* COC(=O)c1nc(C2CC2C)nc(N)c1Br (stereo not drawn) | Criterion not met
* COC(=O)c1nc(C2CC2)nc(N)c1Br | Criterion met
* CCOC(=O)c1nc(C2CC2)nc(N)c1Cl | Criterion met

-- ask Reported Plant response rating, Wheat reaches at least 60 for `Nc1nc(C2CC2)nc(C=O)c1Br` ?
-- reply Criterion not met
